# Test system: barnyardgrass (Echinochloa crus-galli L.): ECHCG
# Experiment: Test Example 1 pre-emergence herbicidal activity, ECHCG
# Assay type: in vivo
# Condition Description: Rate 63 g a.i./ha, visually observed 20th to 23rd day after application
# Excerpt: […]
Parameter Measured: Pre-emergence Herbicidal Activity ECHCG (growth controlling degree) (%)

COc1c(Cl)cc(F)c(-c2nn(C)c(OC(F)F)c2Cl)c1NC(=O)Oc1ccccc1 | 50
COc1c(Cl)cc(F)c(-c2nn(C)c(OC(F)F)c2Cl)c1NC(=O)c1cccc(Br)c1 | 30
COc1c(Cl)cc(F)c(-c2nn(C)c(OC(F)F)c2Cl)c1NC(=O)c1ccccc1C(F)(F)F | 60
COc1ccc(COC(=O)Nc2c(OC)c(Cl)cc(F)c2-c2nn(C)c(OC(F)F)c2Cl)cc1 | 50

----------
Reported Pre-emergence Herbicidal Activity ZEAMX (growth controlling degree) by item:
# Tested on: corn (Zea mays L.): ZEAMX
# Experiment: Test Example 1 pre-emergence herbicidal activity, ZEAMX
# Type: in vivo
# Condition Description: Rate 125 g a.i./ha, visually observed 20th to 23rd day after application
Parameter Measured: Pre-emergence Herbicidal Activity ZEAMX (growth controlling degree)

COc1c(Cl)cc(F)c(-c2nn(C)c(OC(F)F)c2Cl)c1N(C=O)CCOc1ccccc1 | 0%
COc1c(Cl)cc(F)c(-c2nn(C)c(OC(F)F)c2Cl)c1N(C(=O)OCCl)C(=O)OCCl | 0%
COc1c(Cl)cc(F)c(-c2nn(C)c(OC(F)F)c2Cl)c1N(C(=O)CCc1ccccc1)C(=O)CCc1ccccc1 | 0%
COC(=O)CN(C=O)c1c(OC)c(Cl)cc(F)c1-c1nn(C)c(OC(F)F)c1Cl | 0%
CCOC(=O)CN(C=O)c1c(OC)c(Cl)cc(F)c1-c1nn(C)c(OC(F)F)c1Cl | 20%
Cn1nc(-c2c(F)cc(Cl)c(OC(F)F)c2N(C=O)Cc2ccccc2)c(Cl)c1OC(F)F | 0%
COc1c(Cl)cc(F)c(-c2nn(C)c(OC(F)F)c2Cl)c1NC(=O)c1ccc2ccccc2c1 | 20%

----------
growth controlling degree, ORYSA: recorded values
# Test system: rice (Oryza sativa L.), ORYSA
# Experiment: Test Example 2 post-emergence (foliage treatment) herbicidal activity, ORYSA
# Format: in vivo
# Condition Description: 63 g a.i./ha
Parameter Measured: growth controlling degree, ORYSA (%)

COc1ccc(OC(=O)Nc2c(OC)c(Cl)cc(F)c2-c2nn(C)c(OC(F)F)c2Cl)cc1 | 95
CCOC(=O)Nc1c(OC)c(Cl)cc(F)c1-c1nn(C)c(OC(F)F)c1Cl | 10
COc1c(Cl)cc(F)c(-c2nn(C)c(OC(F)F)c2Cl)c1NC(=O)OCCN(C)C | 50
COc1c(Cl)cc(F)c(-c2nn(C)c(OC(F)F)c2Cl)c1N(C(=O)C=C(C)C)C(=O)C=C(C)C | 40

----------
# Tested on: crabgrass (Digitaria sanguinalis L.): DIGSA
# Experiment: Test Example 1 pre-emergence herbicidal activity, DIGSA
# Format: in vivo
# Condition Description: Rate 125 g a.i./ha, visually observed 20th to 23rd day after application
Parameter Measured: Pre-emergence Herbicidal Activity DIGSP (growth controlling degree) (%)

COc1ccc(OC(=O)N(C(=O)Oc2ccc(OC)cc2)c2c(OC)c(Cl)cc(F)c2-c2nn(C)c(OC(F)F)c2Cl)cc1 | 0
COCCOC(=O)N(C(=O)OCCOC)c1c(OC)c(Cl)cc(F)c1-c1nn(C)c(OC(F)F)c1Cl | 100
COc1c(Cl)cc(F)c(-c2nn(C)c(OC(F)F)c2Cl)c1N(C(=O)OCCCl)C(=O)OCCCl | 30
COc1c(Cl)cc(F)c(-c2nn(C)c(OC(F)F)c2Cl)c1NC(=O)c1ccc2ccccc2c1 | 100
CCOC(=O)CN(C=O)c1c(OC)c(Cl)cc(F)c1-c1nn(C)c(OC(F)F)c1Cl | 50
COc1c(Cl)cc(F)c(-c2nn(C)c(OC(F)F)c2Cl)c1N(C(=O)CCc1ccccc1)C(=O)CCc1ccccc1 | 98
COC(=O)CN(C=O)c1c(OC)c(Cl)cc(F)c1-c1nn(C)c(OC(F)F)c1Cl | 30

----------
# Test system: wheat (Triticum aestivum L.), TRZAX
# Experiment: Test Example 2 post-emergence (foliage treatment) herbicidal activity, TRZAX
# Format: in vivo
# Condition Description: 63 g a.i./ha
# Protocol: Upland field soil was put into a 1/170,000 ha pot, and seeds of various plants were sown. […] On the 20th to 23rd day after the application of the herbicide, the growth of the respective plants was visually observed, and the herbicidal effects were evaluated by growth controlling degrees (%) ranging from 0 (equivalent to the untreated control) to 100 (complete kill), whereby the results shown in Table 5, were obtained. […]
Property: growth controlling degree, TRZAX; scope: individual molecules
Parameter Measured: growth controlling degree, TRZAX (%)

COc1c(Cl)cc(F)c(-c2nn(C)c(OC(F)F)c2Cl)c1NC(=O)C=Cc1ccccc1F | 60
COc1c(Cl)cc(F)c(-c2nn(C)c(OC(F)F)c2Cl)c1NC(=O)C=Cc1ccc(F)cc1 | 10
COc1ccc(OC(=O)Nc2c(OC)c(Cl)cc(F)c2-c2nn(C)c(OC(F)F)c2Cl)cc1 | 40
COc1c(Cl)cc(F)c(-c2nn(C)c(OC(F)F)c2Cl)c1NC(=O)C=Cc1cccc(C)c1 | 30
COc1c(Cl)cc(F)c(-c2nn(C)c(OC(F)F)c2Cl)c1N(C=O)CC(=O)c1ccccc1 | 20
COc1c(Cl)cc(F)c(-c2nn(C)c(OC(F)F)c2Cl)c1NC(=O)C(C)C | 40
COc1c(Cl)cc(F)c(-c2nn(C)c(OC(F)F)c2Cl)c1NC(=O)Oc1ccccc1 | 30
COc1c(Cl)cc(F)c(-c2nn(C)c(OC(F)F)c2Cl)c1NC(=O)C(C)(C)OC(C)=O | 20
CCOC(=O)CN(C=O)c1c(OC)c(Cl)cc(F)c1-c1nn(C)c(OC(F)F)c1Cl | 10
C#CCNc1c(OC(F)F)c(Cl)cc(F)c1-c1nn(C)c(OC(F)F)c1Cl | 50
COc1c(Cl)cc(F)c(-c2nn(C)c(OC(F)F)c2Cl)c1NCCc1cccc(C)c1 | 70
COc1c(Cl)cc(F)c(-c2nn(C)c(OC(F)F)c2Cl)c1NC(=O)CCc1ccccc1C | 50
COc1c(Cl)cc(F)c(-c2nn(C)c(OC(F)F)c2Cl)c1NC(=O)/C=C/c1ccccc1 | 20
COc1c(Cl)cc(F)c(-c2nn(C)c(OC(F)F)c2Cl)c1NC(=O)CCOc1ccccc1 | 30
COc1c(Cl)cc(F)c(-c2nn(C)c(OC(F)F)c2Cl)c1NC(=O)c1cccc(Br)c1 | 30
COc1c(Cl)cc(F)c(-c2nn(C)c(OC(F)F)c2Cl)c1N(C=O)C(C)C | 50

----------
# Pre-emergence Herbicidal Activity TRZAX (growth controlling degree) values compiled below
# Test system: wheat (Triticum aestivum L.): TRZAX
# Experiment: Test Example 1 pre-emergence herbicidal activity, TRZAX
# Type: in vivo
# Condition Description: Rate 63 g a.i./ha, visually observed 20th to 23rd day after application
Parameter Measured: Pre-emergence Herbicidal Activity TRZAX (growth controlling degree) (%)

COc1c(Cl)cc(F)c(-c2nn(C)c(OC(F)F)c2Cl)c1N(C=O)C(C)C [Compound 1-8] | 50
COc1c(Cl)cc(F)c(-c2nn(C)c(OC(F)F)c2Cl)c1NC(=O)c1ccccc1C [Compound 1-24] | 20
COc1c(Cl)cc(F)c(-c2nn(C)c(OC(F)F)c2Cl)c1NC(=O)CCc1ccccc1 [Compound 1-21] | 0
COc1c(Cl)cc(F)c(-c2nn(C)c(OC(F)F)c2Cl)c1NC(=O)c1ccccc1C(F)(F)F [Compound 1-25] | 0
COc1c(Cl)cc(F)c(-c2nn(C)c(OC(F)F)c2Cl)c1NC(=O)OCCN(C)C [Compound 1-66] | 0
COc1c(Cl)cc(F)c(-c2nn(C)c(OC(F)F)c2Cl)c1NC(=O)COc1ccc(C#N)cc1 [Compound 1-36] | 0
COc1c(Cl)cc(F)c(-c2nn(C)c(OC(F)F)c2Cl)c1NC(=O)c1ccc(C)cc1 [Compound 1-261] | 10
COc1c(Cl)cc(F)c(-c2nn(C)c(OC(F)F)c2Cl)c1NC(=O)c1cccc(C(F)(F)F)c1 [Compound 1-262] | 0

----------
A collection of compounds and their measured Pre-emergence Herbicidal Activity TRZAX (growth controlling degree)
# Tested on: wheat (Triticum aestivum L.): TRZAX
# Experiment: Test Example 1 pre-emergence herbicidal activity, TRZAX
# Format: in vivo
# Condition Description: Rate 63 g a.i./ha, visually observed 20th to 23rd day after application
Parameter Measured: Pre-emergence Herbicidal Activity TRZAX (growth controlling degree) (%)

C#CCOC(=O)Nc1c(OC)c(Cl)cc(F)c1-c1nn(C)c(OC(F)F)c1Cl | 30
COc1c(Cl)cc(F)c(-c2nn(C)c(OC(F)F)c2Cl)c1NC=O | 40
COc1c(Cl)cc(F)c(-c2nn(C)c(OC(F)F)c2Cl)c1NC(=O)c1ccc(F)cc1 | 30
COc1c(Cl)cc(F)c(-c2nn(C)c(OC(F)F)c2Cl)c1NC(=O)OCc1ccccn1 | 0
COc1c(Cl)cc(F)c(-c2nn(C)c(OC(F)F)c2Cl)c1NC(=O)CCC1CCCCC1 | 10
COc1c(Cl)cc(F)c(-c2nn(C)c(OC(F)F)c2Cl)c1N | 50
COc1c(Cl)cc(F)c(-c2nn(C)c(OC(F)F)c2Cl)c1NC(=O)c1ccc(F)cc1F | 0
COc1c(Cl)cc(F)c(-c2nn(C)c(OC(F)F)c2Cl)c1N(C=O)CC(=O)c1ccccc1 | 20
COc1c(Cl)cc(F)c(-c2nn(C)c(OC(F)F)c2Cl)c1NC(=O)COc1ccccc1 | 30
COc1c(Cl)cc(F)c(-c2nn(C)c(OC(F)F)c2Cl)c1NC(=O)C=Cc1ccc(C)cc1 | 0
COc1c(Cl)cc(F)c(-c2nn(C)c(OC(F)F)c2Cl)c1NC(=O)OCc1ccccc1Cl | 10
COc1c(Cl)cc(F)c(-c2nn(C)c(OC(F)F)c2Cl)c1NC(=O)OCc1cccnc1 | 0
C#CCNc1c(OC(F)F)c(Cl)cc(F)c1-c1nn(C)c(OC(F)F)c1Cl | 10
COc1c(Cl)cc(F)c(-c2nn(C)c(OC(F)F)c2Cl)c1NC(=O)COCc1ccccc1 | 10
COc1c(Cl)cc(F)c(-c2nn(C)c(OC(F)F)c2Cl)c1NC(C)C | 30
COc1c(Cl)cc(F)c(-c2nn(C)c(OC(F)F)c2Cl)c1NC(=O)c1cccc(Br)c1 | 0
COc1c(Cl)cc(F)c(-c2nn(C)c(OC(F)F)c2Cl)c1NC(=O)Oc1ccccc1 | 10
COc1c(Cl)cc(F)c(-c2nn(C)c(OC(F)F)c2Cl)c1NC(=O)CCc1cccc(F)c1 | 40
COCC(=O)Nc1c(OC)c(Cl)cc(F)c1-c1nn(C)c(OC(F)F)c1Cl | 10
Cn1nc(-c2c(F)cc(Cl)c(OC(F)F)c2NC(=O)C(F)(F)F)c(Cl)c1OC(F)F | 10
Cn1nc(-c2c(F)cc(Cl)c(OC(F)F)c2N)c(Cl)c1OC(F)F | 20
COc1c(Cl)cc(F)c(-c2nn(C)c(OC(F)F)c2Cl)c1NC(=O)c1ccccc1F | 10
COc1c(Cl)cc(F)c(-c2nn(C)c(OC(F)F)c2Cl)c1N(C(=O)C=C(C)C)C(=O)C=C(C)C | 20
COc1c(Cl)cc(F)c(-c2nn(C)c(OC(F)F)c2Cl)c1NC(=O)OC(C)C | 30
COc1c(Cl)cc(F)c(-c2nn(C)c(OC(F)F)c2Cl)c1NC(=O)C(C)(C)OC(C)=O | 10
